Test system: L1210
Assay: Cytotoxicity against mouse L1210 cells
Assay type: functional, cell-based
property: IC50 (nM)
Please reply with the bare figure in nM and do not write the unit itself.

Lookup: Which value of IC50 has been reported for `C=C1CC[C@H](C(C)C)[C@@H]2[C@H]1[C@H]1C[C@](C)(O)[C@@H](O)CC[C@@](C)(O)[C@@H]2O1` in the records?
Found: 3
